Tested on: Mus musculus
protocol.summary: Compound was tested for antagonist activity against apomorphine-induced mouse climbing (ip). using in vivo method
Assay type: functional
What ED50 was measured for each of the following?

substance.smiles	ED50
O=C(NCCCCN1CCN(c2nsc3ccccc23)CC1)c1cccc2c1NCC2	2.6 mg/kg

Parameter requested: ED50. Apply to each item below.
1. O=C(NCCCCN1CCN(c2nsc3ccccc23)CC1)c1cccc2cccnc12
2. Nc1ncccc1C(=O)NCCCCN1CCN(c2nsc3ccccc23)CC1
3. Nc1c(C(=O)NCCCCN2CCN(c3nsc4ccccc34)CC2)sc2ccccc12
4. Nc1sccc1C(=O)NCCCCN1CCN(c2nsc3ccccc23)CC1
5. O=C(NCCCCN1CCN(c2nsc3ccccc23)CC1)c1c[nH]c2ccccc12
6. O=C(NCCCCN1CCN(c2nsc3ccccc23)CC1)c1cccnc1
7. O=C(NCCCCN1CCN(c2nsc3ccccc23)CC1)c1cccc2c1NCCC2
8. O=C(NCCCCN1CCN(c2nsc3ccccc23)CC1)c1cccc2[nH]cnc12

Out:
1: < 25 mg/kg; 2: 6.4 mg/kg; 3: 2.2 mg/kg; 4: 4.8 mg/kg; 5: > 25 mg/kg; 6: 5.2 mg/kg; 7: < 25 mg/kg; 8: > 25 mg/kg

---

Tested on: Mus musculus
protocol.summary: Compound was tested for antagonist activity against apomorphine-induced mouse climbing (po). using in vivo method
Type: functional
attribute.measured: ED50 (mg/kg)
Numbers only, in mg/kg.

Before answering, review these 3 worked examples.
substance.smiles	reading
O=C(NCCCCN1CCN(c2nsc3ccccc23)CC1)c1cccc2cccnc12	54.4
Nc1c(C(=O)NCCCCN2CCN(c3nsc4ccccc34)CC2)sc2ccccc12	51.6
O=C(NCCCCN1CCN(c2nsc3ccccc23)CC1)c1cccc2c1NCC2	18.6

Items follow; give ED50 for each.
1. Nc1ccsc1C(=O)NCCCCN1CCN(c2nsc3ccccc23)CC1
2. Nc1cscc1C(=O)NCCCCN1CCN(c2nsc3ccccc23)CC1
3. O=C(NCCCCN1CCN(c2nsc3ccccc23)CC1)c1cccnc1
4. O=C(NCCCCN1CCN(c2nsc3ccccc23)CC1)c1[nH]nc2ccccc12
5. Nc1ncccc1C(=O)NCCCCN1CCN(c2nsc3ccccc23)CC1

Out:
[9.7, 12.6, 15.5, 31.8, 17.1]

---

target.of.assay: D(2) dopamine receptor (Mus musculus)
Sequence (P61168 whole entry): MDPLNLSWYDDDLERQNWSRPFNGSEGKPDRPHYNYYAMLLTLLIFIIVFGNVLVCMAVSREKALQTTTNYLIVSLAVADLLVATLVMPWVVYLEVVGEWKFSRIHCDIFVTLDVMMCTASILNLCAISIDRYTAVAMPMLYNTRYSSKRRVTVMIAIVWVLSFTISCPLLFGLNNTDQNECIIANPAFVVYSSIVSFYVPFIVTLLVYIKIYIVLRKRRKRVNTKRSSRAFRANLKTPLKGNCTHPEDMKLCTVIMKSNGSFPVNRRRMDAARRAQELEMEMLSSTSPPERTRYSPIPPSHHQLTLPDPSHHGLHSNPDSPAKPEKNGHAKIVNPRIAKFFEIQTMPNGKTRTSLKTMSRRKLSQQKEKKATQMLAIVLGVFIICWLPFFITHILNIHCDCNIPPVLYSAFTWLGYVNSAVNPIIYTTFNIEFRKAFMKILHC
protocol.summary: Inhibitory activity against Dopamine receptor D2 from mice
attribute.measured: IC50
Don't forget the unit after the number, please.

Examples with their reported IC50 follow.
substance.smiles	target.of.assay	IC50
Nc1sccc1C(=O)NCCCCN1CCN(c2nsc3ccccc23)CC1	D(2) dopamine receptor (Mus musculus)	11 nM
O=C(NCCCCN1CCN(c2nsc3ccccc23)CC1)c1c[nH]c2ccccc12	D(2) dopamine receptor (Mus musculus)	14 nM
O=C(NCCCCN1CCN(c2nsc3ccccc23)CC1)c1cccc2[nH]cnc12	D(2) dopamine receptor (Mus musculus)	7.6 nM

For each entry beneath this line, provide reported IC50.
1. Nc1ccncc1C(=O)NCCCCN1CCN(c2nsc3ccccc23)CC1
2. O=C(NCCCCN1CCN(c2nsc3ccccc23)CC1)c1ccncc1
3. O=C(NCCCCN1CCN(c2nsc3ccccc23)CC1)c1cccc2cccnc12

Out:
1: 4.7 nM; 2: 25 nM; 3: 14 nM

---

target.of.assay: UniProt Q64264
Sequence (Q64264 whole entry): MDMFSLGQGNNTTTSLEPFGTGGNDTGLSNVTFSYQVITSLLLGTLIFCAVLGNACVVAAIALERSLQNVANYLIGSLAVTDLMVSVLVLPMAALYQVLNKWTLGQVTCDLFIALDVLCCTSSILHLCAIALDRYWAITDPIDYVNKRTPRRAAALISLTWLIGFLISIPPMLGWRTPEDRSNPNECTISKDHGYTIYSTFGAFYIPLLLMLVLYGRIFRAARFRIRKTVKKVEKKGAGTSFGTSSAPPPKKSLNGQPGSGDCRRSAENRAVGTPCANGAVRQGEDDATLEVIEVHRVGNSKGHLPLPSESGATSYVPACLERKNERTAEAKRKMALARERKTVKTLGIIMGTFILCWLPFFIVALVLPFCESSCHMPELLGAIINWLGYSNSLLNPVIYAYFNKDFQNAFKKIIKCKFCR
Could you mark each record Yes if its IC50 falls strictly under 5 nM, and No if it equals or exceeds it?

In: Find out if reported IC50 for O=C(NCCCCN1CCN(c2nsc3ccccc23)CC1)c1[nH]nc2ccccc12 is less than 5 nM
Out: Yes

---

target.of.assay: Serotonin 2 (5-HT2) receptor (Mus musculus, UniProt Q02152+P34968+P35363)
protocol.summary: Inhibitory activity against serotonin 5-hydroxytryptamine 2 receptor from mice.
Type: protein assay
attribute.measured: IC50
Be sure to follow the number with its unit.

Use the examples below as a reference point.
substance.smiles	target.of.assay	attribute.measured	reading
O=C(NCCCCN1CCN(c2nsc3ccccc23)CC1)c1cccc2c1NCC2	Serotonin 2 (5-HT2) receptor (Mus musculus, UniProt Q02152+P34968+P35363)	IC50	3.4 nM
Nc1ccsc1C(=O)NCCCCN1CCN(c2nsc3ccccc23)CC1	Serotonin 2 (5-HT2) receptor (Mus musculus, UniProt Q02152+P34968+P35363)	IC50	1.3 nM
O=C(NCCCCN1CCN(c2nsc3ccccc23)CC1)c1cccc2[nH]cnc12	Serotonin 2 (5-HT2) receptor (Mus musculus, UniProt Q02152+P34968+P35363)	IC50	0.29 nM
Nc1cccnc1C(=O)NCCCCN1CCN(c2nsc3ccccc23)CC1	Serotonin 2 (5-HT2) receptor (Mus musculus, UniProt Q02152+P34968+P35363)	IC50	8.3 nM
O=C(NCCCCN1CCN(c2nsc3ccccc23)CC1)c1cccnc1	Serotonin 2 (5-HT2) receptor (Mus musculus, UniProt Q02152+P34968+P35363)	IC50	2.9 nM

Please look at the items below and tell me IC50 for each one, in order.
1. O=C(NCCCCN1CCN(c2nsc3ccccc23)CC1)c1c[nH]c2ccccc12
2. Nc1cnccc1C(=O)NCCCCN1CCN(c2nsc3ccccc23)CC1
3. O=C(NCCCCN1CCN(c2nsc3ccccc23)CC1)c1ccncc1

Out:
1: 1.3 nM; 2: 1.5 nM; 3: 2.3 nM

---

target.of.assay: UniProt:P61168
protocol.summary: Inhibition of mouse Dopamine receptor D2
attribute.measured: pIC50
One number for each entry, as −log10 of the molar value.

Some entries whose results are on file:
compound	pIC50
Nc1ncccc1C(=O)NCCCCN1CCN(c2nsc3ccccc23)CC1	8.11
Nc1ccsc1C(=O)NCCCCN1CCN(c2nsc3ccccc23)CC1	8.02
Cc1nc2n(c(=O)c1CCN1CCC(c3noc4cc(F)ccc34)CC1)CCCC2 [RISPERIDONE]	7.64
O=C(NCCCCN1CCN(c2nsc3ccccc23)CC1)c1ccccn1	7.62
O=C(NCCCCN1CCN(c2nsc3ccccc23)CC1)c1cccc2cc[nH]c12	7.55

List reported pIC50 for each of these compounds:
1. Nc1cscc1C(=O)NCCCCN1CCN(c2nsc3ccccc23)CC1
2. O=C(NCCCCN1CCN(c2nsc3ccccc23)CC1)c1cccc2c1NCC2
3. Nc1c(C(=O)NCCCCN2CCN(c3nsc4ccccc34)CC2)sc2ccccc12
4. O=C(NCCCCN1CCN(c2nsc3ccccc23)CC1)c1[nH]nc2ccccc12

Out:
[8.22, 7.47, 8.24, 8.66]

Dear colleague, could you send me pIC50 for each of the items below? Thanks.
1. O=C(NCCCCN1CCN(c2nsc3ccccc23)CC1)c1cccc2c1NCCC2
2. O=C(NCCCCN1CCN(c2nsc3ccccc23)CC1)c1cccnc1

Out:
7.55
7.33

---

Tested on: Mus musculus
protocol.summary: Compound was tested for antagonist activity against apomorphine-induced mouse climbing (ip). using in vivo method
Assay type: functional
attribute.measured: ED50 (mg/kg)
Give bare numbers, in mg/kg.

substance.smiles	attribute.measured	reading
Nc1ccsc1C(=O)NCCCCN1CCN(c2nsc3ccccc23)CC1	ED50	0.9

Turning now to a further molecule:
In: // fetch ED50 given entry Nc1cscc1C(=O)NCCCCN1CCN(c2nsc3ccccc23)CC1
Out: 1.7

---

target.of.assay: 5-hydroxytryptamine receptor 1A (Mus musculus, UniProt Q64264)
pIC50: −log10 of the molar value.
Outcome label depends on pIC50 relative to 8: at/above gives 1 (yes), below gives 0 (no).

In: Is the recorded value of pIC50 equal to or greater than 8 for this compound? O=C(NCCCCN1CCN(c2nsc3ccccc23)CC1)c1c[nH]c2ccccc12
Out: 1 (yes)

---

target.of.assay: Serotonin 2 (5-HT2) receptor (Mus musculus, UniProt Q02152+P34968+P35363)
protocol.summary: Inhibitory activity against serotonin 5-hydroxytryptamine 2 receptor from mice.
Format: protein assay
attribute.measured: IC50 (nM)
One number for each entry, in nM.

Record excerpt, results attached:
substance.smiles	attribute.measured	units	reading
Nc1c(C(=O)NCCCCN2CCN(c3nsc4ccccc34)CC2)sc2ccccc12	IC50	nM	0.85
Nc1ncccc1C(=O)NCCCCN1CCN(c2nsc3ccccc23)CC1	IC50	nM	1.5
Nc1ccncc1C(=O)NCCCCN1CCN(c2nsc3ccccc23)CC1	IC50	nM	3.1
O=C(NCCCCN1CCN(c2nsc3ccccc23)CC1)c1[nH]nc2ccccc12	IC50	nM	0.35
Nc1sccc1C(=O)NCCCCN1CCN(c2nsc3ccccc23)CC1	IC50	nM	2.3

Quick batch: IC50 for everything below.
1. O=C(NCCCCN1CCN(c2nsc3ccccc23)CC1)c1ccccn1
2. O=C(NCCCCN1CCN(c2nsc3ccccc23)CC1)c1cccc2cc[nH]c12

Out:
1. 1.5
2. 1.2

Batch request: IC50 per item, same order as input.
1. O=C(NCCCCN1CCN(c2nsc3ccccc23)CC1)c1cccc2cccnc12
2. O=C(NCCCCN1CCN(c2nsc3ccccc23)CC1)c1cccc2c1NCCC2
3. Nc1cscc1C(=O)NCCCCN1CCN(c2nsc3ccccc23)CC1

Out:
1: 2.4; 2: 2.4; 3: 2.5
